From: PubChem BioAssay

# Tested on: Ras-related protein Rab-7a (dog), GTP binding
# Assay Details: blockers of fluorescent GTP binding to Rab7 – biochemical, wildtype, multiplex bead flow cytometry, dose response (AID 1336)
# Experimental Context: bead-based flow cytometry; series mostly up to 100 µM
Results with a measured potency or affinity are listed apart. The source made the active and inactive calls. The rule behind the calls is not given here.

- Structure String: "CC(=O)Nc1ccc(N=Cc2c(O)c(C(=O)Nc3ccccc3)cc3ccccc23)cc1"
  GTP binding, % of control: "inactive"
- Structure String: "O=C(Cn1cnc2cc([N+](=O)[O-])ccc2c1=O)NCCc1ccc(Cl)cc1"
  GTP binding, % of control: "inactive"
- Structure String: "O=C(Nc1nnc(-c2ccc3c(c2)OCCO3)o1)c1ccc(Cc2ccccc2)cc1"
  GTP binding, % of control: "inactive"
- Structure String: "Cc1cc(NCc2ccccn2)n2c(nc3ccccc32)c1C#N"
  GTP binding, % of control: "inactive"
- Structure String: "O=C(CCc1nc2ccccc2[nH]c1=O)OCC(=O)N1CCc2ccccc21"
  GTP binding, % of control: "inactive"
